biological target: human FFAR1 (GPR40) (Homo sapiens); construct: Flag; expressed in transfected cells; host or cells: HEK293T; test: NFAT-RE-based reporter gene activity assay (Dual-Glo luciferase) for GPR40 agonistic activity in co-transfected HEK293T cells; format: cell-based; settings: 4-hour treatment
Sequence (O14842 whole entry): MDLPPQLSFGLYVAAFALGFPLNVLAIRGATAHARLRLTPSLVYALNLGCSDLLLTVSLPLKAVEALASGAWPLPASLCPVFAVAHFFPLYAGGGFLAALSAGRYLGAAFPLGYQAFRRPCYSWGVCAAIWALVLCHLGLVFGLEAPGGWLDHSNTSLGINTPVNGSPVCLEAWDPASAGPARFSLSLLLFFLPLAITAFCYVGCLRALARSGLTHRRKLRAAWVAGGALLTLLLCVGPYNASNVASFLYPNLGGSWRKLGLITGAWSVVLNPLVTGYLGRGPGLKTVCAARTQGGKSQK
Reported Metric: EC50

{"Molecule": "COc1cccc(N2CCC(c3oc4cc([C@@H](CC(=O)O)C5CC5)ccc4c3C(=O)Nc3cc(OC)ccc3Cl)CC2)c1 [Compound 268]", "Reported Metric": "EC50", "Result": "≤ 10 nM"}
{"Molecule": "COc1ccc(F)c(N2CCC(c3oc4cc(C(CC(=O)O)C5CC5)ccc4c3CCC(C)(C)C)CC2)c1 (stereo not drawn) [Compound 388]", "Reported Metric": "EC50", "Result": "100 to 500 nM"}
{"Molecule": "COc1cccc(N2CCC(c3oc4cc(C(CC(=O)O)C5CC5)ccc4c3C(=O)Nc3noc4ccccc34)CC2)c1 (stereo not drawn) [Compound 296]", "Reported Metric": "EC50", "Result": "100 to 500 nM"}
{"Molecule": "COc1ccc(F)c(N2CCC(c3oc4cc(C(CC(=O)O)C5CC5)c(F)cc4c3-c3ccc(C(C)(C)C)cc3)CC2)c1 (stereo not drawn) [Compound 223]", "Reported Metric": "EC50", "Result": "100 to 500 nM"}
{"Molecule": "COc1cccc(N2CCC(c3oc4cc([C@@H](CC(=O)O)C5CC5)ccc4c3C(C)OCc3ccco3)CC2)c1 (stereo partly drawn) [Compound 420]", "Reported Metric": "EC50", "Result": "100 to 500 nM"}
{"Molecule": "COc1ccc(F)c(N2CCC(c3oc4cc(C(CC(=O)O)C5CC5)ccc4c3-c3cccc(C4CC4)c3)CC2)c1 (stereo not drawn) [Compound 164]", "Reported Metric": "EC50", "Result": "100 to 500 nM"}

Data provenance: patent EP4682145A1
